# Test system: CCRF-CEM
# ASSAY_SUMMARY: Cytotoxicity against human CEM cells at 250 uM within 48 hrs by trypan blue exclusion assay
# Type: functional, cell-based
The source made the active and inactive calls. The rule behind the calls is not given here.

SMILES_CODE	Activity
COC(=O)c1ccc2c(c1)nc(-c1c(F)cccc1F)n2CCc1ccc(OC)cc1	Active
COC(=O)c1ccc2c(c1)nc(-c1ccc(C(C)(C)C)cc1)n2CCc1ccc(OC)cc1	Active
COC(=O)c1ccc2c(c1)nc(-c1ccc(F)c([N+](=O)[O-])c1)n2CCc1ccc(OC)cc1	Active
